Biological target: Nitric oxide synthase 1 (Homo sapiens)
Sequence (P29475 whole entry): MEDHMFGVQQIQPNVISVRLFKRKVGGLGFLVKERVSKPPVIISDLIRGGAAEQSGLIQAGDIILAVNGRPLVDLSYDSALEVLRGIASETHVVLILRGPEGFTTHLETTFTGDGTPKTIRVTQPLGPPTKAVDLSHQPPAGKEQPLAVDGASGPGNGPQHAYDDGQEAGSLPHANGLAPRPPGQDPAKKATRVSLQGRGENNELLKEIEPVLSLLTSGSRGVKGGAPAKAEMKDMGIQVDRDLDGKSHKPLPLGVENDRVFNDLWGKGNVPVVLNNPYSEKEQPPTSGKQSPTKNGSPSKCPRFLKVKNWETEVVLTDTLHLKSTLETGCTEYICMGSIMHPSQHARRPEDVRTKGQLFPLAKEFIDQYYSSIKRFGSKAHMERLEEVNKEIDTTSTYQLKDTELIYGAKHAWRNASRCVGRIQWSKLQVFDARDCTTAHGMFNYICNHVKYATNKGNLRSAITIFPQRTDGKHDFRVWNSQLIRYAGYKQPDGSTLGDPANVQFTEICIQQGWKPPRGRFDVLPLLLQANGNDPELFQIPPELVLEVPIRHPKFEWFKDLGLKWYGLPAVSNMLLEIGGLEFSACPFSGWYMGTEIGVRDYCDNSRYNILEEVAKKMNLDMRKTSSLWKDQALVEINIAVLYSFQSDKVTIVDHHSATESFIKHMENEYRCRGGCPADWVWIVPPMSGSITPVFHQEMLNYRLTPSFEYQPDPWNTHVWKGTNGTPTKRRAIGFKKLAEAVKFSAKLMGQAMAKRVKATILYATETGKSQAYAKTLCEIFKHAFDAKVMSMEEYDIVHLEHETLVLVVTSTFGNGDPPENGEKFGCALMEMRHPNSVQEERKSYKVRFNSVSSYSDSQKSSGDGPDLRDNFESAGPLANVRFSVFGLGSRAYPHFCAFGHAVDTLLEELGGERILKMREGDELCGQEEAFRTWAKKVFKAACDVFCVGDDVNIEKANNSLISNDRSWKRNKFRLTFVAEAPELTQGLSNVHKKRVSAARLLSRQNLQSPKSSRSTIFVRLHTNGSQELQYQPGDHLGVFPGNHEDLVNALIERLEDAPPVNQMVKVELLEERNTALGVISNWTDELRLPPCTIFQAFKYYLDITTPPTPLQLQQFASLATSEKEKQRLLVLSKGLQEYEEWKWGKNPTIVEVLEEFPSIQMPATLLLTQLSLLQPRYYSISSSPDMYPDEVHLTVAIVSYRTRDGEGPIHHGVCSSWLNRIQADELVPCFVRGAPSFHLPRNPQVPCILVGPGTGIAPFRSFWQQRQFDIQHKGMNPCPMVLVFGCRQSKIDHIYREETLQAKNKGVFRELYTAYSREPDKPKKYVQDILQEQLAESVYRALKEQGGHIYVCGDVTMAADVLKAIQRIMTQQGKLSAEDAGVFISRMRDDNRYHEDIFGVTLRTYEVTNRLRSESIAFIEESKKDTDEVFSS
measuredProperty: pKi
Friendly reminder that pKi comes from taking -log10 of the concentration in mol/L.

Read the entry N=C(N)NN and write its reported pKi.
3.08

----------
Biological target: Nitric oxide synthase, inducible (Homo sapiens, UniProt P35228)
Sequence (P35228 whole entry): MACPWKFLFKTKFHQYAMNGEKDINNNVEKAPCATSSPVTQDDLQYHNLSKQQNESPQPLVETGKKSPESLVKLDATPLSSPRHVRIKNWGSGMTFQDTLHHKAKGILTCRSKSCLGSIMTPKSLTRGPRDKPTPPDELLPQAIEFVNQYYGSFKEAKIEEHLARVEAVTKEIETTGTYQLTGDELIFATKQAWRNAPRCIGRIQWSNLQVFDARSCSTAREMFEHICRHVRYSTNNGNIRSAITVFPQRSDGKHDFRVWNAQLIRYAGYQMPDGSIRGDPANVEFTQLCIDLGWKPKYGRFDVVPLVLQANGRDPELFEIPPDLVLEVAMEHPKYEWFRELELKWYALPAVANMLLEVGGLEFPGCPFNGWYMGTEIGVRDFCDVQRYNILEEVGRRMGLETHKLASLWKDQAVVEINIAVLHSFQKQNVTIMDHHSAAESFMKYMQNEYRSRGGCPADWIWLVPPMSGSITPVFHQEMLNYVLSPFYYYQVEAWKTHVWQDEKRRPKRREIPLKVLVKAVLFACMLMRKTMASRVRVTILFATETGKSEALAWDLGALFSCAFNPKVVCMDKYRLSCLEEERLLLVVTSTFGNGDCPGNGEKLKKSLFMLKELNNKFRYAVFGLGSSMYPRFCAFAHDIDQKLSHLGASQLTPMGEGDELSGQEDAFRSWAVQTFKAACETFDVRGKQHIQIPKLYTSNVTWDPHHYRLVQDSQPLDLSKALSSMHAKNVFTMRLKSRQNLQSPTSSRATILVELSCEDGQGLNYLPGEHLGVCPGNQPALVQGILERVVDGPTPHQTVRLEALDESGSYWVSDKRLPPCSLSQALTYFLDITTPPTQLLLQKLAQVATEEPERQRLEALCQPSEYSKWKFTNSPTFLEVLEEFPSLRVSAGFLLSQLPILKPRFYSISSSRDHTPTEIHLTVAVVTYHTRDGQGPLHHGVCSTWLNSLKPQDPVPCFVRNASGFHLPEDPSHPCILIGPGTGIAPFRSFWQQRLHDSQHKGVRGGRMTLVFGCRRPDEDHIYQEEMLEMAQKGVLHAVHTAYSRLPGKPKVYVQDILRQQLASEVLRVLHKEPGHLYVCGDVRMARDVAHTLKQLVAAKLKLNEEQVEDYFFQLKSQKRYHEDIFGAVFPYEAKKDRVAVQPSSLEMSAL
Assay: Binding affinity to iNOS (unknown origin) assessed as inhibition constant
measuredProperty: Ki (µM)
Quick reminder: number only, in µM, skip the unit.

Read the entry N=C(N)NN and write its reported Ki.
16

----------
Assay: Water solubility at pH 7.4
Type: physicochemical
measuredProperty: solubility (µM)
Quick reminder: number only, in µM, skip the unit.

Read the entry CCCCC(OC(C)=O)c1ccccc1C(=O)O[C@H]1CO[C@H]2[C@@H]1OC[C@H]2OC(=O)NCCO[N+](=O)[O-] (stereo partly specified) and write its reported solubility.
2.13
